Listed below: GI50 values for each entry.
- Test system: K562
- MEASUREMENT NOTES: NCI tumour cell line growth inhibition, 48 h
Activity calls are given as the source filed them. No stated cut-off is given here; in the data, active = GI50 up to about 1.1 µM and inactive = higher.

Worked examples follow.
1. N#CC1(C#N)NC(c2cccnc2)C(C#N)(C#N)NC1c1cccnc1 (stereo not drawn): > 100 µM (inactive)
2. N#Cc1ccc(NC(=O)C(CC(=O)OCc2ccccc2)NC(=O)OCc2ccccc2)cc1 (stereo not drawn): > 10 µM (inactive)

GI50 for Cc1c(C(=O)Nc2ccc(Cl)cc2)nc(N)nc1-c1cccc(Cl)c1 ? 38.5 µM (inactive)

----------
- System: OVCAR-3
- MEASUREMENT NOTES: NCI tumour cell line growth inhibition, 48 h
Activity calls are given as the source filed them. No stated cut-off is given here; in the data, active = GI50 up to about 1.1 µM and inactive = higher.
OBSERVATION TYPE: GI50

1) O=C(O)c1cc2sc(C(=O)O)cc2s1: > 100 µM (inactive)
2) COC(=O)C(Cc1c[nH]c2ccccc12)NC(=O)C(Cc1c[nH]c2ccccc12)NC(=O)OCc1ccccc1 (stereo not drawn): 15.5 µM (inactive)
3) COP(=O)(OC)/C(=C/c1cn(C(C)=O)c2ccccc12)NC(C)=O: 21.3 µM (inactive)
4) OCC1OC(n2cnc3c2N=CNC[C@H]3O)C(Cl)C1O (stereo partly drawn): > 100 µM (inactive)
5) CN(C)CCNC(=O)c1cccc2ccc(-c3ccc(-c4ccccc4)cc3)nc12: 6.01 µM (inactive)
6) CCOC(=O)N1C(=O)C2C3C=CC(C2C1=O)C1C2C(=O)N(C(=O)OCC)C(=O)C2C31 (stereo not drawn): > 100 µM (inactive)
7) CC(=O)OCC1OC(n2c(-c3ccc(C)cc3)cc(-c3ccco3)c(C#N)c2=S)C(OC(C)=O)C(OC(C)=O)C1OC(C)=O (stereo not drawn): > 100 µM (inactive)
8) Cc1ccc(S(=O)(=O)N2CC(CCN)c3ccccc32)cc1 (stereo not drawn): 3.36 µM (inactive)
9) CC(C)C1COC(c2ccc3ccccc3c2-c2c(O[Si](C)(C)C(C)(C)C)ccc3ccccc23)=N1 (stereo not drawn): 17.3 µM (inactive)
10) CSc1nc2[nH]c(=O)c(C)nc2c(=O)[nH]1: > 100 µM (inactive)

GI50 for O=C1Nc2ccccc2/C1=N/NC(=O)c1ccccc1O ? 85.3 µM (inactive)

GI50 for CC1(C)CCCCCCCCCC(C)(CCCO)C1=O (stereo not drawn) ? 19.6 µM (inactive)

GI50 for COc1cc(/C=C/C=C2\CC/C(=C\C=C\c3ccc(O)c(OC)c3)C2=O)ccc1O ? > 100 µM (inactive)

GI50 for CCC/C(Cl)=N\OC(=O)Nc1ccc(Br)cc1 ? 6.22 µM (inactive)

GI50 for O=C(O)c1ccc([N+](=O)[O-])c(P(=O)(O)O)c1 ? > 100 µM (inactive)

GI50 for CC1=C(C)C(=O)c2c(cc3ccc4ccccc4n23)C1=O ? > 100 µM (inactive)

GI50 for c1ccc(/N=C2\SC3=NCCN3\C2=N/c2ccccc2)cc1 ? 18.1 µM (inactive)

GI50 for C=CCOc1ccc(C2C(C(=O)OC)C(=O)CC(O)(c3ccccc3)C2C(=O)OC)cc1OC (stereo not drawn) ? 45.6 µM (inactive)

GI50 for O=C1NCC2(CCN(Cc3ccccc3)CC2)N1 ? > 100 µM (inactive)

GI50 for Clc1ccc(-c2c3nc(c(-c4ccc(Cl)cc4)c4ccc([nH]4)c(-c4ccc(Cl)cc4)c4nc(c(-c5ccc(Cl)cc5)c5ccc2[nH]5)C=C4)C=C3)cc1 ? > 100 µM (inactive)

GI50 for c1c[nH]c(C23C4C5C6C4C2C6C53)n1 (stereo not drawn) ? > 100 µM (inactive)

GI50 for COc1cc2c(c(OC)c1OC)-c1ccc(SC)c(=O)cc1[C@@H](NC(=O)c1ccc([N+](=O)[O-])cc1)CC2 ? < 0.0025 µM (active)

----------
- System: NCI-H23
- MEASUREMENT NOTES: NCI tumour cell line growth inhibition, 48 h
Active and inactive are the calls of the source. Rule as the data show it: active = GI50 up to about 1.1 µM and inactive = higher.
OBSERVATION TYPE: GI50

GI50 for COC[C@@H](/N=C/N1CCc2cc(OC)c(OC)cc2[C@@H]1C)C(C)(C)C ? > 100 µM (inactive)

GI50 for C=CCN1C(=O)/C(=C/c2ccco2)N=C1SC/C=C/C ? 50.9 µM (inactive)

GI50 for N=C(N)NS(=O)(=O)c1ccc(NCc2c3ccccc3[n+]([O-])c3ccccc23)cc1 ? 21.8 µM (inactive)

GI50 for Cc1ccc(/N=N\c2c(O)c(S(=O)(=O)O)cc3cc(S(=O)(=O)O)ccc23)c(C)c1 ? > 100 µM (inactive)

GI50 for C=CCC1(O)C(=O)OC2C(O)COC21O (stereo unspecified) ? > 100 µM (inactive)

----------
- Tested on: COLO 205
- MEASUREMENT NOTES: NCI tumour cell line growth inhibition, 48 h
Active and inactive are the calls of the source. No stated cut-off is given here; in the data, active = GI50 up to about 1.1 µM and inactive = higher.
Please answer using one outcome listed in active, inactive

1. O=C(Sc1c(-c2ccccc2)c(=O)n(-c2ccccc2)c(=S)n1-c1ccccc1)c1ccc(Cl)cc1: inactive

How was C[N+]12CCCCC1C(CN1C(=O)Cc3c4ccccc4c(c4ccccc34)CC1=O)CCC2 (stereo not given) classified in this test? inactive

How was CSc1nc2[nH]c(=O)c(C)nc2c(=O)[nH]1 classified in this test? inactive

How was C/C(=N\c1ccc(Cl)c(Cl)c1)c1ccncc1 classified in this test? inactive

How was O=C(ON=C1c2ccccc2C(Br)C(Br)c2ccccc21)c1ccccc1 (stereo not given) classified in this test? inactive

How was CCC(O)CC1OC2(CCC1C)CC1OC(=O)/C=C\C(C)(O)C(O)C(C)C(O)C(OC3CC(OC)C(O)C(C)O3)C(O)C(C)(O)CCC/C=C/C3CC(C)COC3(O)CC(O2)C1C (stereo not given) classified in this test? active

----------
- Tested on: Malme-3M
- MEASUREMENT NOTES: NCI tumour cell line growth inhibition, 48 h
Active and inactive are the calls of the source. No stated cut-off is given here; in the data, active = GI50 up to about 1.1 µM and inactive = higher.
Please answer using one outcome listed in yes (1) (active), no (0) (inactive)

Examples from the recorded data:
1. C1=C(CC2=C[P+](c3ccccc3)(c3ccccc3)C=C(c3ccccc3)O2)OC(c2ccccc2)=C[P+]1(c1ccccc1)c1ccccc1: yes (1)
2. O=C(c1ccc(-c2ccccc2)cc1)N(Cc1cccnc1)C(=S)N(Cc1cccnc1)C(=O)c1ccc(-c2ccccc2)cc1: no (0)
3. CCc1cccc(C(C)CC)c1NC(=O)CC1C(=O)Nc2ccccc2[S+]1[O-] (centres undefined): no (0)
4. CC[C@](C)(O)C(=O)O[C@H]1C(=O)O[C@@H]2C[C@H]3C(C)=C[C@H](O)[C@@H](O)[C@]3(C)[C@H]3[C@@]4(O)OC[C@]32[C@@H]1[C@@H](C)[C@H]4O: no (0)
5. CC1C(=O)CCC1C(Sc1ccccc1)(Sc1ccccc1)Sc1ccccc1 (centres undefined): no (0)
6. CC(C)NC(=O)O/N=C1\CCC2[C@@H]3CC=C4C[C@@H](OC(=O)NC(C)C)CC[C@]4(C)C3CC[C@]12C (some centres undefined): yes (1)

How was COC1=CC(=O)C2C(C1=O)[C@@H]1c3ccccc3OC[C@H]21 (some centres undefined) classified in this test? no (0)

How was O=C(CCC(=O)C(C(=O)c1ccccc1)c1ccccc1)Nc1cccc(C(F)(F)F)c1 (centres undefined) classified in this test? no (0)

How was N#CC1(C#N)NC(c2cccnc2)C(C#N)(C#N)NC1c1cccnc1 (centres undefined) classified in this test? no (0)

----------
- Tested on: T47D
- MEASUREMENT NOTES: NCI tumour cell line growth inhibition, 48 h
Active and inactive are the calls of the source. No stated cut-off is given here; in the data, active = GI50 up to about 1.1 µM and inactive = higher.
Listed below: GI50 values for each entry.

Worked examples follow.
1. Cc1ccccc1OC(C)C(=O)NN1C(=O)CSC1c1ccccc1 (configuration not stated): 34.7 µM (inactive)
2. N=C(N)NCCN1CC2CCC(CC2)C1: > 100 µM (inactive)
3. Nc1ccc2c(c1)C1Oc3ccccc3CC1CO2 (configuration not stated): 76 µM (inactive)

Now turn to the next molecule.
GI50 for COC1=C(OC)C(=O)C(Cc2c(Cl)nc3n2CCS3)=C(C)C1=O ? 4.13 µM (inactive)

----------
- System: MOLT-4
- MEASUREMENT NOTES: NCI tumour cell line growth inhibition, 48 h
Active and inactive are the calls of the source. Rule as the data show it: active = GI50 up to about 1.1 µM and inactive = higher. Peptide text beside a SMILES is read from it. * marks the point of attachment. Cbz = O=C(OCc1ccccc1)*; CH2Cl = ClC*
Please answer using one outcome listed in active, inactive

Examples from the recorded data:
1) CN(C)CC1CCCC(CN(C)C)C1=NOC(=O)c1ccccc1 (stereo not given): inactive
2) c1ccc(/N=C2\SC3=NCCN3\C2=N/c2ccccc2)cc1: inactive
3) N#CC1(C#N)NC(c2cccnc2)C(C#N)(C#N)NC1c1cccnc1 (stereo not given): inactive

How was COc1cc(C2CC(C)(N3CCCC3)Oc3cc4c(cc32)OCO4)cc(OC)c1OC (stereo not given) classified in this test? active

How was Cc1ccc(-c2c(C#N)c(-c3ccc(N(C)C)cc3)c(C#N)c(=O)n2NS(=O)(=O)c2ccccc2)cc1 classified in this test? inactive

How was CC(C)CC(NC(=O)OCc1ccccc1)C(=O)NC(Cc1ccccc1)C(=O)CCl (stereo not drawn) (Cbz-Leu-Phe-CH2Cl; configuration not given here) classified in this test? active
